Molecular target: D3 (Homo sapiens)
Construct: NIMH Psychoactive Drug Screening Program (PDSP)
Sequence (P35462 whole entry): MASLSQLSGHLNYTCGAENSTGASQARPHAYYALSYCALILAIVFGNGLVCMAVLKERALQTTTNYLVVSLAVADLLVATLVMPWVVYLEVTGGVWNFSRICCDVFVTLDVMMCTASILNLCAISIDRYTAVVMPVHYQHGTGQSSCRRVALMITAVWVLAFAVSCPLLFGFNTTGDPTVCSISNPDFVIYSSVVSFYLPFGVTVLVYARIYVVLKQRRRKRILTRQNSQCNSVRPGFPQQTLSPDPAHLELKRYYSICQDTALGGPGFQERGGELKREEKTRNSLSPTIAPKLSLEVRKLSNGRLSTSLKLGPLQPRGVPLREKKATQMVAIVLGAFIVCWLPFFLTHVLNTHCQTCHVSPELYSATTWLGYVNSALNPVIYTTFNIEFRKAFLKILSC
Experiment: PDSP binding assay, D3
Conditions: Table S2, single determination
observation.type: Ki

Request: Entry CC(C)(C)OC(=O)NCCCCCCCC#Cc1ccc2c(c1)C=C([N+](=O)[O-])C(C(F)(F)F)O2 (stereo not shown) : reported Ki = ?
Response: > 10000 nM

###

Biological target: hP2Y6R (Homo sapiens, UniProt Q15077)
Construct: expressed in transfected cells
Sequence (Q15077 whole entry): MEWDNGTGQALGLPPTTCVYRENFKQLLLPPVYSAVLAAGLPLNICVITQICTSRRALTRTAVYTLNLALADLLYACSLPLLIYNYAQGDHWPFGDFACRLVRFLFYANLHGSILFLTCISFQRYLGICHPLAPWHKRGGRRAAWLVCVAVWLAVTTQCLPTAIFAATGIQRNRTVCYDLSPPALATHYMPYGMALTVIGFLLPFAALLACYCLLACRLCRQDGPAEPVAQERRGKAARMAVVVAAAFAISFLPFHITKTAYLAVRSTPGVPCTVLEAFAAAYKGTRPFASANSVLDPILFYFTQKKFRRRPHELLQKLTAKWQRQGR
Assay: UDP (100 nM)-induced Ca2+ mobilization in hP2Y6R stably transfected 1321N1 astrocytoma cells
Type: cell-based
Conditions: UDP 100 nM; 3–4 independent triplicate determinations; read-out: IC50, hP2Y6R (Mean ± SEM)
Below: a set of entries, each annotated with reported pIC50.
Scale for pIC50: -log10 of concentration given in mol/L; no unit attached.

Solved cases (2 shown):
compound="CC(C)(C)OC(=O)NCCCCCCCCC#Cc1ccc2c(c1)C=C([N+](=O)[O-])C(C(F)(F)F)O2 (stereo not shown)" assay_value=4.34
compound="NCCCC#Cc1ccc2c(c1)C=C([N+](=O)[O-])C(C(F)(F)F)O2 (stereo not shown)" assay_value=5.00

Request: # input compound: CC(C)(C)C(=O)NCCCCCCCC#Cc1ccc2c(c1)C=C([N+](=O)[O-])C(C(F)(F)F)O2 (stereo not shown) ; wanted: its pIC50
Response: 4.76

Request: For CC(C)(C)OC(=O)NCCCC#Cc1ccc2c(c1)C=C([N+](=O)[O-])C(C(F)(F)F)O2 (stereo not shown) , what is its reported pIC50?
Response: 5.73

Request: Recorded pIC50 of NCCCCCCCC#Cc1cccc2c1OC(C(F)(F)F)C([N+](=O)[O-])=C2 (stereo not shown) , please.
Response: 4.89
